- Tested on: Escherichia coli TOP10
- PROTOCOL_SUMMARY: shrunken log2 fold change of peptide-encoding DNA abundance (4.5 h post-induction vs induction); higher = less antimicrobial activity (less host growth inhibition)
- RUN_CONDITIONS: time post-induction: 4.5 h; library: site-saturation at positions 5, 18, 19, 20
EXPERIMENTAL_ENDPOINT: shrunken log2 fold change
Answers are plain numbers.

Example cases with answers are listed next.
[
  {
    "SEQ_STRING": "RRIRSRPPRLPRPRPRPFHPPRP",
    "shrunken log2 fold change": 0.0938
  },
  {
    "SEQ_STRING": "RRIRNRPPRLPRPRPRPGNEPRP",
    "shrunken log2 fold change": -0.223
  },
  {
    "SEQ_STRING": "RRIRNRPPRLPRPRPRPYSDPRP",
    "shrunken log2 fold change": -0.031
  },
  {
    "SEQ_STRING": "RRIRWRPPRLPRPRPRPSLEPRP",
    "shrunken log2 fold change": 0.067
  },
  {
    "SEQ_STRING": "RRIRGRPPRLPRPRPRPEMKPRP",
    "shrunken log2 fold change": 0.73
  }
]

// batch mode: one shrunken log2 fold change value per listed entry
1. RRIRGRPPRLPRPRPRPKWVPRP
2. RRIRCRPPRLPRPRPRPICNPRP
3. RRIRRRPPRLPRPRPRPWTKPRP
4. RRIRARPPRLPRPRPRPWLIPRP
5. RRIRARPPRLPRPRPRPFMLPRP
6. RRIRDRPPRLPRPRPRPYWEPRP

1. 0.233
2. -0.579
3. 0.124
4. 0.111
5. -0.0197
6. -0.0419

* * *

- Tested on: Escherichia coli TOP10
- PROTOCOL_SUMMARY: shrunken log2 fold change of peptide-encoding DNA abundance (4.5 h post-induction vs induction); higher = less antimicrobial activity (less host growth inhibition)
- RUN_CONDITIONS: time post-induction: 4.5 h; library: site-saturation at positions 5, 18, 19, 20
Please assign a class to every record based on measured shrunken log2 fold change, with ranges lower bin: < -0.08; middle bin: ≥ -0.08 and < 0.08; upper bin: ≥ 0.08

Which class does RRIRCRPPRLPRPRPRPMCSPRP fall in? lower bin

Band for RRIRRRPPRLPRPRPRPLQWPRP ? upper bin

Note: place this sequence into its band. Item: RRIRPRPPRLPRPRPRPLCNPRP middle bin

Please report the category associated with RRIRQRPPRLPRPRPRPGWTPRP , nothing else. upper bin

Bin this entry: RRIRWRPPRLPRPRPRPGNHPRP lower bin

Which bin should I file RRIRWRPPRLPRPRPRPALWPRP under? upper bin

Which class is correct for the following sequence? RRIRLRPPRLPRPRPRPKGKPRP lower bin

Could you tell me which band RRIRYRPPRLPRPRPRPIMHPRP belongs to? lower bin

Bin? RRIRKRPPRLPRPRPRPWNIPRP lower bin

Which bin, given its shrunken log2 fold change, does RRIRNRPPRLPRPRPRPCCTPRP occupy? upper bin

Bin? RRIRRRPPRLPRPRPRPLIEPRP upper bin

Exam item: assign RRIRFRPPRLPRPRPRPNDKPRP to the correct category. lower bin

# bin lookup: classify RRIRVRPPRLPRPRPRPDHRPRP by its shrunken log2 fold change lower bin

Band assignment needed for RRIRARPPRLPRPRPRPFRHPRP please. middle bin

Lab note: sort RRIRDRPPRLPRPRPRPVMDPRP into the matching shrunken log2 fold change band. upper bin

Hi, small favor: classify RRIRWRPPRLPRPRPRPKAWPRP by its shrunken log2 fold change when you get a moment. upper bin

* * *

- Test system: Escherichia coli TOP10
- PROTOCOL_SUMMARY: shrunken log2 fold change of peptide-encoding DNA abundance (4.5 h post-induction vs induction); higher = less antimicrobial activity (less host growth inhibition)
- RUN_CONDITIONS: time post-induction: 4.5 h; library: site-saturation at positions 5, 18, 19, 20
Labels assigned by shrunken log2 fold change range: bin A = under -0.06, bin B = from -0.06 up to 0.07, bin C = 0.07 and over

[
  {
    "SEQ_STRING": "RRIRDRPPRLPRPRPRPNKKPRP",
    "CLASS_NAME": "bin A"
  },
  {
    "SEQ_STRING": "RRIRQRPPRLPRPRPRPFLGPRP",
    "CLASS_NAME": "bin A"
  },
  {
    "SEQ_STRING": "RRIRQRPPRLPRPRPRPVTHPRP",
    "CLASS_NAME": "bin C"
  },
  {
    "SEQ_STRING": "RRIRPRPPRLPRPRPRPPEEPRP",
    "CLASS_NAME": "bin C"
  },
  {
    "SEQ_STRING": "RRIRHRPPRLPRPRPRPRVWPRP",
    "CLASS_NAME": "bin C"
  }
]

Please classify: RRIRARPPRLPRPRPRPMWEPRP bin B

Bin this entry: RRIRPRPPRLPRPRPRPAGNPRP bin C

Would you mind sorting RRIRGRPPRLPRPRPRPGMQPRP into the appropriate category? bin C

Into which category would you place RRIRMRPPRLPRPRPRPAACPRP ? bin C

Form field 'band' for RRIRCRPPRLPRPRPRPKRVPRP bin C

* * *

- Test system: Escherichia coli TOP10
- PROTOCOL_SUMMARY: shrunken log2 fold change of peptide-encoding DNA abundance (4.5 h post-induction vs induction); higher = less antimicrobial activity (less host growth inhibition)
- RUN_CONDITIONS: time post-induction: 4.5 h; library: site-saturation at positions 5, 18, 19, 20
I'd appreciate it if you could supply shrunken log2 fold change values for the items below.
Give bare numbers.

[
  {
    "SEQ_STRING": "RRIRMRPPRLPRPRPRPYCHPRP",
    "TEST_TARGET": "Escherichia coli TOP10",
    "shrunken log2 fold change": -0.545
  },
  {
    "SEQ_STRING": "RRIRRRPPRLPRPRPRPQCRPRP",
    "TEST_TARGET": "Escherichia coli TOP10",
    "shrunken log2 fold change": 0.123
  },
  {
    "SEQ_STRING": "RRIRARPPRLPRPRPRPGSYPRP",
    "TEST_TARGET": "Escherichia coli TOP10",
    "shrunken log2 fold change": 0.14
  }
]

# batch: return shrunken log2 fold change for each of the 5 sequences below
1. RRIRRRPPRLPRPRPRPPYGPRP
2. RRIRQRPPRLPRPRPRPTSDPRP
3. RRIRCRPPRLPRPRPRPFMKPRP
4. RRIRFRPPRLPRPRPRPFCIPRP
5. RRIRPRPPRLPRPRPRPNIDPRP

0.0935
-0.358
-0.696
-0.518
-0.468

* * *

- Tested on: Escherichia coli TOP10
- PROTOCOL_SUMMARY: shrunken log2 fold change of peptide-encoding DNA abundance (4.5 h post-induction vs induction); higher = less antimicrobial activity (less host growth inhibition)
- RUN_CONDITIONS: time post-induction: 4.5 h; library: site-saturation at positions 5, 18, 19, 20
EXPERIMENTAL_ENDPOINT: shrunken log2 fold change
One number for each entry.

[
  {
    "SEQ_STRING": "RRIRDRPPRLPRPRPRPMVMPRP",
    "shrunken log2 fold change": 0.133
  }
]

I'm hoping you can list shrunken log2 fold change for every sequence here, please.
1. RRIRERPPRLPRPRPRPNGYPRP
2. RRIRERPPRLPRPRPRPVWTPRP
3. RRIRRRPPRLPRPRPRPTSFPRP
4. RRIRTRPPRLPRPRPRPLVWPRP
5. RRIRGRPPRLPRPRPRPGRMPRP

1: -0.193; 2: -0.00115; 3: 0.264; 4: 0.44; 5: 0.727

Each sequence below has a reported value. Please supply its shrunken log2 fold change.
1. RRIRFRPPRLPRPRPRPPWYPRP
2. RRIRNRPPRLPRPRPRPSVGPRP
3. RRIRSRPPRLPRPRPRPMFTPRP
4. RRIRFRPPRLPRPRPRPDVAPRP
5. RRIRFRPPRLPRPRPRPKEFPRP
6. RRIRCRPPRLPRPRPRPMMRPRP
7. RRIRHRPPRLPRPRPRPGHTPRP

[-0.3, -0.0175, -0.374, 0.239, -0.0812, 0.0843, 0.105]

* * *

- Test system: Escherichia coli TOP10;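 further: peptides expressed intracellularly from a pBAD plasmid library in pooled LB shake-flask culture, induced with 0.3% L-arabinose, DNA abundance read by NGS, three biological replicates, DESeq2 with apeglm shrinkage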
- PROTOCOL_SUMMARY: shrunken log2 fold change of peptide-encoding DNA abundance (4.5 h post-induction vs induction); higher = less antimicrobial activity (less host growth inhibition)
- RUN_CONDITIONS: time post-induction: 4.5 h; library: site-saturation at positions 5, 18, 19, 20
Answer each item with its documented shrunken log2 fold change.
Give bare numbers.

Sample answers from the record:
[
  {
    "SEQ_STRING": "RRIRYRPPRLPRPRPRPSEEPRP",
    "ASSAY_RESULT": -0.111
  },
  {
    "SEQ_STRING": "RRIRKRPPRLPRPRPRPEALPRP",
    "ASSAY_RESULT": 1.67
  }
]

Respectfully, I request shrunken log2 fold change for each entry included below.
1. RRIRQRPPRLPRPRPRPNMDPRP
2. RRIRLRPPRLPRPRPRPVQHPRP
3. RRIRKRPPRLPRPRPRPSQRPRP
4. RRIRVRPPRLPRPRPRPQVHPRP
5. RRIRPRPPRLPRPRPRPNRIPRP

[-0.225, -0.0767, 0.231, -0.14, -0.132]

Please give shrunken log2 fold change, item by item, for the list that follows.
1. RRIRMRPPRLPRPRPRPVVYPRP
2. RRIRDRPPRLPRPRPRPEQDPRP
3. RRIRVRPPRLPRPRPRPYYSPRP
4. RRIRIRPPRLPRPRPRPFSFPRP
5. RRIRLRPPRLPRPRPRPMYMPRP

1: -0.0377; 2: 1.39; 3: -0.235; 4: -0.742; 5: -0.295
